Test system: Amaranthus retoflexus (AMARE)
Experiment: Pre-emergence herbicidal glasshouse test on Amaranthus retoflexus
Assay type: in vivo
Conditions: pre-emergence; 1000 g/h; evaluated after 13 days
Readout: PRE Application AMARE herbicidal damage (five point scale)

| Compound | Measured target | Reported result |
| --- | --- | --- |
| C=Cc1ccc(-c2cnn(C)c(=O)c2O)c(S(C)(=O)=O)c1 [Compound 1.139] | Amaranthus retoflexus (AMARE) | 5 (5=80-100% damage) |
| Cn1ncc(-c2ccc(C(F)(F)F)n(-c3cccc(C(F)(F)F)n3)c2=O)c(O)c1=O [Compound 9.001] | Amaranthus retoflexus (AMARE) | 2 (2=20-39% damage) |
| CS(=O)(=O)c1ccccc1-c1cnn(CC(F)F)c(=O)c1O [Compound 2.012] | Amaranthus retoflexus (AMARE) | 5 (5=80-100% damage) |
| Cn1ncc(-n2ccc(C(F)(F)F)c(-c3cccc(Cl)c3)c2=O)c(O)c1=O [Compound 1.037] | Amaranthus retoflexus (AMARE) | 5 (5=80-100% damage) |
| Cn1ncc(-c2ccc(C(F)(F)F)nc2OCc2cccc(Cl)c2)c(O)c1=O [Compound 4.009] | Amaranthus retoflexus (AMARE) | 3 (3=40-59% damage) |
| Cc1c(-c2cnn(C)c(=O)c2O)ccc(S(C)(=O)=O)c1C1=NOCC1 [Compound 1.018] | Amaranthus retoflexus (AMARE) | 5 (5=80-100% damage) |
| Cn1ncc(-c2ccc(Cl)cc2[S+](C)[O-])c(O)c1=O (centres unmarked) [Compound 1.059] | Amaranthus retoflexus (AMARE) | 5 (5=80-100% damage) |
| Cn1ncc(-n2ccc(C(F)(F)F)c(-c3cncnc3)c2=O)c(O)c1=O [Compound 1.024] | Amaranthus retoflexus (AMARE) | 5 (5=80-100% damage) |
| Cc1c(-c2c(C3CC3)nn(C)c(=O)c2O)ccc(S(C)(=O)=O)c1C1=NOCC1 [Compound 2.019] | Amaranthus retoflexus (AMARE) | 5 (5=80-100% damage) |
| COCCn1cccc(-c2cnn(C)c(=O)c2O)c1=O [Compound 9.009] | Amaranthus retoflexus (AMARE) | 1 (1=0-19% damage) |
| CCn1ncc(-c2ccc(S(C)(=O)=O)c(C3=NOCC3)c2Cl)c(O)c1=O [Compound 1.009] | Amaranthus retoflexus (AMARE) | 5 (5=80-100% damage) |
| Cn1ncc(-c2cc(Cl)c(Cl)cc2Cl)c(O)c1=O [Compound 1.089] | Amaranthus retoflexus (AMARE) | 1 (1=0-19% damage) |
| Cc1ccc(F)cc1-c1cnn(C)c(=O)c1O [Compound 1.094] | Amaranthus retoflexus (AMARE) | 1 (1=0-19% damage) |
| Cn1ncc(-c2ccc(C(F)(F)F)cc2[S+](C)[O-])c(O)c1=O (centres unmarked) [Compound 1.029] | Amaranthus retoflexus (AMARE) | 5 (5=80-100% damage) |
| Cn1ncc(-c2ccc(S(C)(=O)=O)cc2Cl)c(O)c1=O [Compound 1.105] | Amaranthus retoflexus (AMARE) | 5 (5=80-100% damage) |
| Cn1ncc(-c2c(Br)cccc2S(C)(=O)=O)c(O)c1=O [Compound 1.106] | Amaranthus retoflexus (AMARE) | 4 (4=60-79% damage) |
| Cn1ncc(-n2ccc3ccccc3c2=O)c(O)c1=O [Compound 1.069] | Amaranthus retoflexus (AMARE) | 2 (2=20-39% damage) |
| Cn1ncc(-c2ccccc2C#N)c(O)c1=O [Compound 1.022] | Amaranthus retoflexus (AMARE) | 1 (1=0-19% damage) |
| Cn1ncc(-n2ccc(C(F)(F)F)c(-c3ccc(C(F)(F)F)nc3)c2=O)c(O)c1=O [Compound 7.010] | Amaranthus retoflexus (AMARE) | 5 (5=80-100% damage) |
| Cn1ncc(-n2ccc(C(F)(F)F)c(-c3cccc(F)c3)c2=O)c(O)c1=O [Compound 7.012] | Amaranthus retoflexus (AMARE) | 5 (5=80-100% damage) |
| Cn1ncc(-c2ccc(Cl)cc2Cl)c(O)c1=O [Compound 1.077] | Amaranthus retoflexus (AMARE) | 3 (3=40-59% damage) |
| COc1ccc(C(C)C)cc1-c1c(C(F)(F)F)ccn(-c2cnn(C)c(=O)c2O)c1=O [Compound 7.015] | Amaranthus retoflexus (AMARE) | 5 (5=80-100% damage) |
| Cn1ncc(-c2ccc(-c3ccccc3)cc2S(C)(=O)=O)c(O)c1=O [Compound 2.033] | Amaranthus retoflexus (AMARE) | 5 (5=80-100% damage) |
| CCCCS(=O)(=O)c1ccccc1-c1cnn(C)c(=O)c1O [Compound 1.051] | Amaranthus retoflexus (AMARE) | 5 (5=80-100% damage) |
| Cn1ncc(-c2cc3cc(F)cnc3n(-c3ccsc3)c2=O)c(O)c1=O [Compound 1.074] | Amaranthus retoflexus (AMARE) | 5 (5=80-100% damage) |
| Cn1ncc(-c2ccc(C#N)cc2C(F)(F)F)c(O)c1=O [Compound 1.071] | Amaranthus retoflexus (AMARE) | 5 (5=80-100% damage) |
| C=CCn1cccc(-c2cnn(C)c(=O)c2O)c1=O [Compound 9.002] | Amaranthus retoflexus (AMARE) | 1 (1=0-19% damage) |
| Cn1ncc(-c2ccc(Cl)cc2S(C)(=O)=O)c(O)c1=O [Compound 1.061] | Amaranthus retoflexus (AMARE) | 5 (5=80-100% damage) |
| CC(C)N(C)S(=O)(=O)c1nc(C(F)(F)F)ccc1-c1cnn(C)c(=O)c1O [Compound 4.017] | Amaranthus retoflexus (AMARE) | 5 (5=80-100% damage) |
| Cn1ncc(-c2ccc(S(C)(=O)=O)c(C3=NOCC3)c2Cl)c(O)c1=O [Compound 1.032] | Amaranthus retoflexus (AMARE) | 5 (5=80-100% damage) |
| Cn1ncc(-n2ccc(C(F)(F)F)c(-c3cccc(OC(F)(F)F)c3)c2=O)c(O)c1=O [Compound 7.005] | Amaranthus retoflexus (AMARE) | 5 (5=80-100% damage) |
| COCn1ncc(-c2ccccc2S(C)(=O)=O)c(O)c1=O [Compound 1.144] | Amaranthus retoflexus (AMARE) | 5 (5=80-100% damage) |
| Cn1nc(O)c(-c2ccc(C(F)(F)F)cc2S(C)(=O)=O)c(O)c1=O [Compound 2.056] | Amaranthus retoflexus (AMARE) | 5 (5=80-100% damage) |
| Cc1c(-c2cnn(C3CC3)c(=O)c2O)ccc(S(C)(=O)=O)c1C1=NOCC1 [Compound 1.008] | Amaranthus retoflexus (AMARE) | 4 (4=60-79% damage) |
| Cn1ncc(-c2ccc(S(C)(=O)=O)c(F)c2Cl)c(O)c1=O [Compound 1.021] | Amaranthus retoflexus (AMARE) | 5 (5=80-100% damage) |
